Consider molecules characterized by their IC50 with ASK1 kinase (Homo sapiens (Human)).
Answer in nM, number only, no unit symbol.

Q: Using the record for O=C(Nc1cccc2c1OCCn1nnnc1-2)c1cc(-n2cnc(C3CC3)c2)c(N2C[C@@H]3C[C@H]2CO3)cn1 [Example 64] , report its IC50.
A: 3.9

Q: Which IC50 is reported for this molecule? O=C(Nc1cccc2c1OCCn1nnnc1-2)c1cc(-n2cnc(C3CC3)c2)c(N2C[C@H]3C[C@@H]2CO3)cn1 [Example 62]
A: 5.1

Q: Record request: IC50 value, item Cc1cc(F)c(C(=O)Nc2cccc3c2OC[C@H](C)n2cncc2-3)cc1-n1cnc(C2CC2)c1 [Example 46]
A: 15.1

Q: Could you share which IC50 value was measured for CC(C)Oc1cnc(C(=O)Nc2cccc3c2OCCn2nnnc2-3)cc1-n1cnc(C2CC2)c1 [Example 68] ?
A: 1.8

Q: # lookup: IC50 of Cc1cc(F)c(C(=O)Nc2cccc3c2OC[C@@H](C)n2nnnc2-3)cc1-n1cnc(C2CC2)c1 [Example 5]
A: 5.8

Q: State the recorded IC50 for this entry: C[C@@H]1COc2c(NC(=O)c3cc(-n4cnc(C5CC5)c4)c(N4CCOCC4)cn3)cccc2-c2nncn21 [Example 39]
A: 5.5

Q: Reported IC50 for C[C@@H]1COc2c(NC(=O)c3cc(-n4cnc(C5CC5)c4)c(N4CC[C@@H](O)C4)cn3)cccc2-c2nnnn21 [Example 77] : what is it?
A: 4.7

Q: Consider the molecule shown here: O=C(Nc1cccc2c1OC[C@H](CF)n1nnnc1-2)c1cc(-n2cnc(C3CC3)c2)ccn1 [Example 27] What is its recorded IC50?
A: 6.8

Q: I'd like to know its IC50. The molecule in question is CC1(O)CN(c2cnc(C(=O)Nc3cccc4c3OCCn3nnnc3-4)cc2-n2cnc(C3CC3)c2)C1 [Example 67]
A: 2.6

Q: Need IC50, item C[C@@H]1COCCN1c1cnc(C(=O)Nc2cccc3c2OCCn2nnnc2-3)cc1-n1cnc(C2CC2)c1 [Example 70]
A: 2.2

Q: Which value of IC50 has been reported for Cc1cc(F)c(C(=O)Nc2cccc3c2OCC(C)(C)n2nnnc2-3)cc1-n1cnc(C2CC2)c1 [Example 13] in the records?
A: 5.2

Q: Fill blank: measured IC50 of the molecule C[C@@H]1CN(c2cnc(C(=O)Nc3cccc4c3OC[C@@H](C)n3nnnc3-4)cc2-n2cnc(C3CC3)c2)CCO1 [Example 75] is ____.
A: 4

Q: Recorded IC50 of Cc1cc(F)c(C(=O)Nc2cccc3c2OCCn2cnc(C)c2-3)cc1-n1cnc(C2CC2)c1 [Example 51] , please.
A: 307

Q: Recorded IC50 for O=C(Nc1cccc2c1OCC1(CC1)n1cnnc1-2)c1cc(-n2cnc(C3CC3)c2)c(N2CCOCC2)cn1 [Example 25] , please?
A: 3.3

Q: Quick one: IC50 for Cc1cc(F)c(C(=O)Nc2cccc3c2OC[C@@H]([C@H](C)O)n2nnnc2-3)cc1-n1cnc(C2CC2)c1 [Example 48] ?
A: 5.1

Q: Please look up its IC50: Cc1cc(F)c(C(=O)Nc2cccc3c2OCCn2nncc2-3)cc1-n1cnc(C2CC2)c1 [Example 40]
A: 0.5

* * *

What pIC50 was measured for each of the following?
Molecular target: ASK1 kinase (Homo sapiens (Human), UniProt Q99683)
Sequence (Q99683 whole entry): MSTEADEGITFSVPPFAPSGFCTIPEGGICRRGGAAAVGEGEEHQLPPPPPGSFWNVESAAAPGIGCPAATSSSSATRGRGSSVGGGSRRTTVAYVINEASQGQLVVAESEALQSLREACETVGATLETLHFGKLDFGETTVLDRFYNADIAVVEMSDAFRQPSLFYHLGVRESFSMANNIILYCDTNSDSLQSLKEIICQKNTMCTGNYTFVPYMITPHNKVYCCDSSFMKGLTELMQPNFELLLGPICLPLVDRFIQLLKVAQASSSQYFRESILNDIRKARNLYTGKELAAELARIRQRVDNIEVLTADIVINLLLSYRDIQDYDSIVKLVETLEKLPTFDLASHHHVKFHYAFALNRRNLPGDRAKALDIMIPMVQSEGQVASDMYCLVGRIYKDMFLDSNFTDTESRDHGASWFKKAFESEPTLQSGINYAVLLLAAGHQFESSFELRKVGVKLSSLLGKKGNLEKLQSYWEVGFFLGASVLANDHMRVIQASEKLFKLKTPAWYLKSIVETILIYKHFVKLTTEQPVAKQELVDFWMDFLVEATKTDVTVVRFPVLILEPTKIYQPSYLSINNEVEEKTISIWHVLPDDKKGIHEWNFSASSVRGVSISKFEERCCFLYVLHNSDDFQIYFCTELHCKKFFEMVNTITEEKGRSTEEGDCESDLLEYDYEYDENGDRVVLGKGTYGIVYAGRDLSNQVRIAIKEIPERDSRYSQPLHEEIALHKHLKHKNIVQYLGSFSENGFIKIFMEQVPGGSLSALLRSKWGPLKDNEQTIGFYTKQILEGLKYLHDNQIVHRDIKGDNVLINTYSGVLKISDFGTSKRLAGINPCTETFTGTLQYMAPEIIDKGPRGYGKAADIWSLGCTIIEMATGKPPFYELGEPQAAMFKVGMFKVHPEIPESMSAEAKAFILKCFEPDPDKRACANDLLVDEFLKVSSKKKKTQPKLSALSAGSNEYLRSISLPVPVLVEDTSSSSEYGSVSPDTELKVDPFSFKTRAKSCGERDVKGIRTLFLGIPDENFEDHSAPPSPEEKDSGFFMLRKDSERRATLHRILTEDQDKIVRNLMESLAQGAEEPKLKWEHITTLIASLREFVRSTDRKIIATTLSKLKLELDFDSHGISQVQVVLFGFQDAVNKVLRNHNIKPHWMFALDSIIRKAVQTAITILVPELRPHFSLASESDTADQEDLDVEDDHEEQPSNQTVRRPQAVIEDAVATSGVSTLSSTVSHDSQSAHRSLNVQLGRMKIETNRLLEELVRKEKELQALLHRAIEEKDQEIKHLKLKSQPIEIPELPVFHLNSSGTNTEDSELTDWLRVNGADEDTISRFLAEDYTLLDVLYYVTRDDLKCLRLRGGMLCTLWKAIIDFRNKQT
Bear in mind: pIC50 is minus log10 of a mol/L concentration; give just that figure.

Q: What does the data say about its pIC50? Entry: O=C(Nc1cccc2c1OC[C@@H](CF)n1cnnc1-2)c1cc(-n2cnc(C3CC3)c2)ccn1 [Example 29]
A: 8.39

Q: Which pIC50 value is on record for Cc1cc(F)c(C(=O)Nc2cccc3c2O[C@H](C)Cn2cnnc2-3)cc1-n1cnc(C2CC2)c1 [Example 34] ?
A: 8.39

Q: Please look up its pIC50: C[C@@H]1CN(c2cnc(C(=O)Nc3cccc4c3OCCn3nnnc3-4)cc2-n2cnc(C3CC3)c2)CCO1 [Example 55]
A: 8.68

Q: Find the recorded pIC50 belonging to C[C@@H]1CN(c2cnc(C(=O)Nc3cccc4c3OC[C@H](C)n3nnnc3-4)cc2-n2cnc(C3CC3)c2)CCO1 [Example 76] and report it.
A: 8.49

Q: Tell me the measured pIC50 of O=C(Nc1cccc2c1OCC(CO)n1cnnc1-2)c1cc(-n2cnc(C3CC3)c2)ccn1 (stereo not shown) [Example 15] , please.
A: 8.24

Q: Name the reported pIC50 value associated with the molecule O=C(Nc1cccc2c1OCCn1nnnc1-2)c1cc(-n2cnc(C3CC3)c2)c(N2CC[C@@H](O)C2)cn1 [Example 57]
A: 8.33

Q: Given the molecule Cc1cc(F)c(C(=O)Nc2cccc3c2OC[C@@H](C)n2cncc2-3)cc1-n1cnc(C2CC2)c1 [Example 47] , what is its reported pIC50?
A: 8.17
